target: human MMP9 (i.e. activated MMP9), catalytically active caspase-cleaved recombinant MMP9 (human, UniProt P14780 107-707); assay: cell-based or functional assay
Sequence (P14780 107-707): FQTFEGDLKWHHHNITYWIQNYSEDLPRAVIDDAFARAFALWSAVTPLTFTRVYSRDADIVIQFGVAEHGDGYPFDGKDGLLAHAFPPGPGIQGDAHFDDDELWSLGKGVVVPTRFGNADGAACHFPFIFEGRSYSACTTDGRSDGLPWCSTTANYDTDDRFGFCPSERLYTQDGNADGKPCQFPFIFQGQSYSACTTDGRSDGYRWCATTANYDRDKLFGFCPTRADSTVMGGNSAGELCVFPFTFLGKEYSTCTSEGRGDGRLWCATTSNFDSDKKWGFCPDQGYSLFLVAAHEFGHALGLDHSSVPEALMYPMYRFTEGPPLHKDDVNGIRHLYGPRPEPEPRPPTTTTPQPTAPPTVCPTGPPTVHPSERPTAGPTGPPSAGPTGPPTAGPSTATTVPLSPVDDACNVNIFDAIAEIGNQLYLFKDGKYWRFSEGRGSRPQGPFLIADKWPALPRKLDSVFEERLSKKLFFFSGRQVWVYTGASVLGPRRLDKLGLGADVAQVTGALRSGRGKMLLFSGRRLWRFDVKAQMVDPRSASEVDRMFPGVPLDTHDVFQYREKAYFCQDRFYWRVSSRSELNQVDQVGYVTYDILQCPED
readout: IC50 (nM), DQ-gelatin digestion, MMP9 assay
Numbers only, in nM.

* F20-VH-GL1-V1-V9/B08-VL-GL6c (antibody, human IgG4 S228P, V domains shown) VH: EVQLVESGGGLVQPGRSLRLSCAASGFTFNDYPMHWVRQAPGKGLEWVSGISSQSGSVGYAESVKGRFTISRDNAKNSLYLQMNSLRAEDTALYYCARDKIYYGSGSYDFYYYYGMDVWGQGTTVTVSS VL: QSALTQPASVSGSPGQSITISCTGTSNDVGAYNRVSWYQQHPGKAPKLMIYGVSNRPSGVSNRFSGSKSGNTASLTISGLQAEDEADFYCTSYSSSTTSYVVFGGGTKVTVL | 2.64

Shifting focus to the binder that follows.
Problem: Reported IC50 (nM), DQ-gelatin digestion, MMP9 assay, binder F20-VH-GL1-V1-V9-V14/B08-VL-GL6c (antibody, human IgG4 S228P, V domains shown) VH: EVQLVESGGGLVQPGRSLRLSCAASGFTFNDYPMHWVRQAPGKGLEWVSGISSQSGSVGYAESVKGRFTISRDNAKNSLYLQMNSLRAEDTALYYCARDKIYYGSGSYDFYYYYGIDVWGQGTTVTVSS VL: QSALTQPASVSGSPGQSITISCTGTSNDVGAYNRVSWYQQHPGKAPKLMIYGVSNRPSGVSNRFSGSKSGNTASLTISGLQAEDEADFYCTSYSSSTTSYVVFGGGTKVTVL : ____
Result: 3.86
